Where these numbers come from: ChEMBL document CHEMBL1759915

tested on: MCF7; test: Effect on hydrogen peroxide level in human MCF7 cells assessed per mg protein at 2 ug/ml by Wolf's method after 24 hrs (reference value: 12.50 +/- 1.54 nmol/mg of protein); assay type: functional
Please assign No whenever Activity is at or above 30 nmol, and Yes whenever it is below.

In: Below 30 nmol on Activity? Entry CCSc1ncnc2c1cnn2-c1nc(C)nc2sc3c(c12)-c1ccccc1CC3
Out: No

In: Below 30 nmol on Activity? Entry Cc1nc(-n2ncc3c(=S)[nH]cnc32)c2c3c(sc2n1)CCc1ccccc1-3
Out: Yes

====

system: MCF7; assay: Effect on hydrogen peroxide level in human MCF7 cells assessed per mg protein at 10 ug/ml by Wolf's method after 24 hrs (reference value: 12.50 +/- 1.54 nmol/mg of protein); type: functional
Consider the following compounds and their measured Activity readings.

# example entries with known answers
{"chemical-string": "COCCSc1ncnc2c1cnn2-c1nc(C)nc2sc3c(c12)-c1ccccc1CC3", "Activity": "58.5 nmol"}
{"chemical-string": "CCSc1ncnc2c1cnn2-c1nc(C)nc2sc3c(c12)-c1ccccc1CC3", "Activity": "60.5 nmol"}
{"chemical-string": "Cc1nc(-n2ncc3c(=O)[nH]cnc32)c2c3c(sc2n1)CCc1ccccc1-3", "Activity": "52 nmol"}
{"chemical-string": "Cc1nc(-n2ncc3c(Cl)ncnc32)c2c3c(sc2n1)CCc1ccccc1-3", "Activity": "37.85 nmol"}
{"chemical-string": "Cc1nc(-n2ncc3c(=S)[nH]cnc32)c2c3c(sc2n1)CCc1ccccc1-3", "Activity": "30.5 nmol"}
{"chemical-string": "CCOCCSc1ncnc2c1cnn2-c1nc(C)nc2sc3c(c12)-c1ccccc1CC3", "Activity": "40 nmol"}

Here's the next entry for you.
In: What measured Activity goes with Cc1nc(-n2ncc3c(S[C@@H]4O[C@H](CO)[C@@H](O)[C@H]4O)ncnc32)c2c3c(sc2n1)CCc1ccccc1-3 ?
Out: 35.85 nmol

====

tested on: MCF7; assay: Effect on hydrogen peroxide level in human MCF7 cells assessed per mg protein at 2 ug/ml by Wolf's method after 24 hrs (reference value: 12.50 +/- 1.54 nmol/mg of protein); format: functional
Consider the following compounds and their measured Activity readings.
Quick reminder: number only, in nmol, skip the unit.

# example entries with known answers
{"chemical-string": "CCOCCSc1ncnc2c1cnn2-c1nc(C)nc2sc3c(c12)-c1ccccc1CC3", "target-or-system": "MCF7", "Activity, nmol": 30.3}
{"chemical-string": "Cc1nc(-n2ncc3c(=O)[nH]cnc32)c2c3c(sc2n1)CCc1ccccc1-3", "target-or-system": "MCF7", "Activity, nmol": 32}

In: Missing value: Activity, MCF7, entry Cc1nc(-n2ncc3c(Cl)ncnc32)c2c3c(sc2n1)CCc1ccccc1-3 . Fill in?
Out: 28.23

In: Missing value: Activity, MCF7, entry Cc1nc(-n2ncc3c(S[C@@H]4O[C@H](CO)[C@@H](O)[C@H]4O)ncnc32)c2c3c(sc2n1)CCc1ccccc1-3 . Fill in?
Out: 21.23

In: Missing value: Activity, MCF7, entry COCCSc1ncnc2c1cnn2-c1nc(C)nc2sc3c(c12)-c1ccccc1CC3 . Fill in?
Out: 30.75
